assay: Cmin in Sprague-Dawley rat at 10 mg/kg,po measured after 24 hrs; assay type: ADME, organism-based; settings: Sprague-Dawley, in vivo, read-out: Cmin
Test Readout: concentration at 24 h (ng/mL)
I only need the number, in ng/mL, no unit after it.

Record excerpt, results attached:
>>> observed("NCc1cccc(-n2nc(C(F)(F)F)cc2C(=O)Nc2cc(C(O)(CCC3CC3)c3ccncc3)ccc2F)c1 (stereo in doubt; 25)")
2
>>> observed("NCc1cccc(-n2nc(C(F)(F)F)cc2C(=O)Nc2cc(C(N)(CCC3CC3)c3cccnc3)ccc2F)c1 (stereo in doubt; 31)")
9.62

Please look at the following compound next.
# get_value(readout='concentration at 24 h', item= N#Cc1cccc(C(N)(CCC2CC2)c2ccc(F)c(NC(=O)c3cc(C(F)(F)F)nn3-c3cccc(CN)c3)c2)c1 (stereo in doubt; 37) ) 56.5

---

target: Plasma kallikrein (Homo sapiens); assay: Inhibition of purified human plasma kallikrein using H-D-Pro-Phe-Arg-pNA.2HCl as substrate measured after 3 mins by microplate reader analysis
Test Readout: pIC50
In textbook form, pIC50 equals minus log to base ten of the concentration in mol/L.

Record excerpt, results attached:
>>> observed("NCc1cccc(-n2nc(C(F)(F)F)cc2C(=O)Nc2cc(C(O)(CCC3CC3)c3ccncc3)ccc2F)c1 (stereo in doubt; 26)")
6.74
>>> observed("N#Cc1cccc(C(N)(CCC2CC2)c2ccc(F)c(NC(=O)c3cc(C(F)(F)F)nn3-c3cccc(CN)c3)c2)c1 (stereo in doubt; 37)")
8.89
>>> observed("NCc1cccc(-n2nc(C(F)(F)F)cc2C(=O)Nc2cccc(C(O)(CCC3CC3)c3ccccc3)c2)c1 (stereo in doubt; 10)")
8.92
>>> observed("NCc1cccc(-n2nc(C(F)(F)F)cc2C(=O)Nc2cc(C(N)(CCC3CC3)c3ccc(C(N)=O)cc3)ccc2F)c1 (configuration not stated)")
9.05
>>> observed("NCc1cccc(-n2nc(C(F)(F)F)cc2C(=O)Nc2cc(C(O)(CCC3CC3)c3ccncc3)ccc2F)c1 (stereo in doubt; 25)")
8.96

# get_value(readout='pIC50', item= Cc1cc(C(N)(CCC2CC2)c2ccc(F)c(NC(=O)c3cc(C(F)(F)F)nn3-c3cccc(CN)c3)c2)ccn1 (stereo in doubt; 36) ) 7.74

# get_value(readout='pIC50', item= NCc1cccc(-n2nc(C(F)(F)F)cc2C(=O)Nc2cccc(C(O)(CCC3CC3)c3cccnc3)c2)c1 (stereo in doubt; 18) ) 8.72

---

// reported IC50 for each item listed
target: Plasma kallikrein (Homo sapiens, UniProt P03952); assay: Inhibition of purified human plasma kallikrein using H-D-Pro-Phe-Arg-pNA.2HCl as substrate measured after 3 mins by microplate reader analysis
Sequence (P03952 20-390 limits assumed): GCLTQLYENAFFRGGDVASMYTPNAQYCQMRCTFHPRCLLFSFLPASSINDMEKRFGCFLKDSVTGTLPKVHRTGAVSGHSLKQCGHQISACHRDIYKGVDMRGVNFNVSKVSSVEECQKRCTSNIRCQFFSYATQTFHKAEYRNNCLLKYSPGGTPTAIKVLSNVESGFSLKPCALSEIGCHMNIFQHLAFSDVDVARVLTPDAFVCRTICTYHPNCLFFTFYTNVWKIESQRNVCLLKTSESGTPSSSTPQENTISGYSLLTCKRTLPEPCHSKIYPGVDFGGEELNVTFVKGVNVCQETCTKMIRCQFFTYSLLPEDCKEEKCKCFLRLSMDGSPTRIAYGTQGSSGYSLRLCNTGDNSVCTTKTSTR
Sequence (P03952 391-638 limits assumed): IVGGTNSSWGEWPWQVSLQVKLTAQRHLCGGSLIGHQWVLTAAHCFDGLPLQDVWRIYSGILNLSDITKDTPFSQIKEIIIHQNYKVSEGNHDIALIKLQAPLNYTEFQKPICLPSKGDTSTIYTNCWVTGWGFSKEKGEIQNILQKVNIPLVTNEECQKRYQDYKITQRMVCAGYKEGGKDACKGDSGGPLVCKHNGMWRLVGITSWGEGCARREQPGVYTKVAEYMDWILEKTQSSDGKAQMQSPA
I only need the number, in nM, no unit after it.

# get_value(readout='IC50', item= N#Cc1cccc(C(N)(CCC2CC2)c2ccc(F)c(NC(=O)c3cc(C(F)(F)F)nn3-c3cccc(CN)c3)c2)c1 (stereo in doubt; 38) ) 234

# get_value(readout='IC50', item= Cc1cc(C(N)(CCC2CC2)c2ccc(F)c(NC(=O)c3cc(C(F)(F)F)nn3-c3cccc(CN)c3)c2)ccn1 (stereo in doubt; 35) ) 1.2

# get_value(readout='IC50', item= NCc1cccc(-n2nc(C(F)(F)F)cc2C(=O)Nc2cccc(C(O)(CCC3CC3)c3ccccc3)c2)c1 (stereo in doubt; 6) ) 14

# get_value(readout='IC50', item= NCc1cccc(-n2nc(C(F)(F)F)cc2C(=O)Nc2cccc(C(O)(CCC3CC3)c3ccccc3)c2)c1 (stereo in doubt; 11) ) 62

# get_value(readout='IC50', item= NCc1cccc(-n2nc(C(F)(F)F)cc2C(=O)Nc2cc(C(N)(CCC3CC3)c3ccc(C(N)=O)nc3)ccc2F)c1 (single isomer, unassigned; (+)) ) 2.3

# get_value(readout='IC50', item= NCc1cccc(-n2nc(C(F)(F)F)cc2C(=O)Nc2cccc(C(CCC3CC3)c3ccccc3)c2)c1 (configuration not stated) ) 10.4

# get_value(readout='IC50', item= NCc1cccc(-n2nc(C(F)(F)F)cc2C(=O)Nc2cccc(C(O)(CCC3CC3)c3ccncc3)c2)c1 (stereo in doubt; 23) ) 1.3

# get_value(readout='IC50', item= NCc1cccc(-n2nc(C(F)(F)F)cc2C(=O)Nc2cccc(C(O)(CCC3CC3)c3ccncc3)c2)c1 (stereo in doubt; 24) ) 59

---

target: Plasma kallikrein (Homo sapiens); experiment: Inhibition of endogenous human plasma kallikrein using Z-Phe-Arg-AMC.HCl as substrate measured after 5 mins by microplate reader analysis
// reported pIC50 for each item listed
In textbook form, pIC50 equals minus log to base ten of the concentration in mol/L.

>>> observed("NCc1cccc(-n2nc(C(F)(F)F)cc2C(=O)Nc2cc(C(O)(CCC3CC3)c3ccncc3)ccc2F)c1 (stereo in doubt; 25)")
8.11

# get_value(readout='pIC50', item= NCc1cccc(-n2nc(C(F)(F)F)cc2C(=O)Nc2cccc(C(O)(CCC3CC3)c3ccncc3)c2)c1 (stereo in doubt; 24) ) 6.75

# get_value(readout='pIC50', item= NCc1cccc(-n2nc(C(F)(F)F)cc2C(=O)Nc2cc(C(N)(CCC3CC3)c3ccc(C(N)=O)nc3)ccc2F)c1 (single isomer, unassigned; (+)) ) 8.77

# get_value(readout='pIC50', item= N#Cc1cccc(C(N)(CCC2CC2)c2ccc(F)c(NC(=O)c3cc(C(F)(F)F)nn3-c3cccc(CN)c3)c2)c1 (stereo in doubt; 37) ) 8.49

# get_value(readout='pIC50', item= NCc1cccc(-n2nc(C(F)(F)F)cc2C(=O)Nc2cccc(C(O)(CCC3CC3)c3ccccc3)c2)c1 (stereo in doubt; 6) ) 6.72

# get_value(readout='pIC50', item= NCc1cccc(-n2nc(C(F)(F)F)cc2C(=O)Nc2cccc(C(O)(CCC3CC3)c3cccnc3)c2)c1 (stereo in doubt; 18) ) 8.05

# get_value(readout='pIC50', item= NCc1cccc(-n2nc(C(F)(F)F)cc2C(=O)Nc2cccc(C(O)(CCC3CC3)c3ccncc3)c2)c1 (stereo in doubt; 9) ) 7.77

# get_value(readout='pIC50', item= NCc1cccc(-n2nc(C(F)(F)F)cc2C(=O)Nc2cccc(C(O)(CCC3CC3)c3ccccc3)c2)c1 (stereo in doubt; 10) ) 7.25

# get_value(readout='pIC50', item= NCc1cccc(-n2nc(C(F)(F)F)cc2C(=O)Nc2cc(C(N)(CCC3CC3)c3ccncc3)ccc2F)c1 (stereo in doubt; 34) ) 7.12

# get_value(readout='pIC50', item= NCc1cccc(-n2nc(C(F)(F)F)cc2C(=O)Nc2cccc(C(O)(CCC3CC3)c3ccccn3)c2)c1 (stereo unspecified) ) 6.98

---

// reported AUC(0-t) at 24 h for each item listed
assay: AUC (0 to 24hrs) in Sprague-Dawley rat at 10 mg/kg,po; format: ADME, organism-based; design: time < 24 hr, dose 10 mg/kg, route po; conditions: Sprague-Dawley, in vivo

Record excerpt, results attached:
>>> observed("NCc1cccc(-n2nc(C(F)(F)F)cc2C(=O)Nc2cc(C(N)(CCC3CC3)c3ccncc3)ccc2F)c1 (stereo in doubt; 33)")
"825 ng·h/mL"
>>> observed("NCc1cccc(-n2nc(C(F)(F)F)cc2C(=O)Nc2cc(C(N)(CCC3CC3)c3cccnc3)ccc2F)c1 (stereo in doubt; 31)")
"888 ng·h/mL"
>>> observed("NCc1cccc(-n2nc(C(F)(F)F)cc2C(=O)Nc2cc(C(O)(CCC3CC3)c3cccnc3)ccc2F)c1 (stereo in doubt; 20)")
"1440 ng·h/mL"

Please look at the following molecule next.
# get_value(readout='AUC(0-t) at 24 h', item= N#Cc1ccc(C(N)(CCC2CC2)c2ccc(F)c(NC(=O)c3cc(C(F)(F)F)nn3-c3cccc(CN)c3)c2)cc1 (stereo in doubt; 41) ) 2290 ng·h/mL

---

target: Plasma kallikrein (Homo sapiens); assay: Inhibition of purified human plasma kallikrein using H-D-Pro-Phe-Arg-pNA.2HCl as substrate measured after 3 mins by microplate reader analysis
Binary call on IC50 with cut-off 20 nM: strictly below means TRUE, and equality or higher means FALSE.

Look over these answered cases.
>>> label("NCc1cccc(-n2nc(C(F)(F)F)cc2C(=O)Nc2cccc(C(O)(CCC3CC3)c3cccnc3)c2)c1 (stereo in doubt; 19)")
"FALSE"
>>> label("NCc1cccc(-n2nc(C(F)(F)F)cc2C(=O)Nc2cccc(C(O)(CCC3CC3)c3ccncc3)c2)c1 (stereo in doubt; 9)")
"TRUE"
>>> label("NCc1cccc(-n2nc(C(F)(F)F)cc2C(=O)Nc2cccc(C(NCC3CC3)c3ccccc3)c2)c1 (centres undefined)")
"TRUE"
>>> label("NCc1cccc(-n2nc(C(F)(F)F)cc2C(=O)Nc2cc(C(N)(CCC3CC3)c3ccncc3)ccc2F)c1 (stereo in doubt; 33)")
"TRUE"
>>> label("N#Cc1cccc(C(N)(CCC2CC2)c2ccc(F)c(NC(=O)c3cc(C(F)(F)F)nn3-c3cccc(CN)c3)c2)n1 (centres undefined)")
"TRUE"
>>> label("NCc1cccc(-n2nc(C(F)(F)F)cc2C(=O)Nc2cccc(C(O)(CCC3CC3)c3ccccn3)c2)c1 (centres undefined)")
"TRUE"

Bench note: check whether NCc1cccc(-n2nc(C(F)(F)F)cc2C(=O)Nc2cccc(C(O)(CCC3CC3)c3cccnc3)c2)c1 (stereo in doubt; 8) shows IC50 below 20 nM TRUE

Bench note: check whether NCc1cccc(-n2nc(C(F)(F)F)cc2C(=O)Nc2cc(C(N)(CCC3CC3)c3cccc(C(N)=O)c3)ccc2F)c1 (centres undefined) shows IC50 below 20 nM TRUE

Bench note: check whether NCc1cccc(-n2nc(C(F)(F)F)cc2C(=O)Nc2cc(C(N)(CCC3CC3)c3ccncc3)ccc2F)c1 (stereo in doubt; 34) shows IC50 below 20 nM FALSE
